Test system: cathepsin L1 (Fasciola hepatica)
Test: CTSL1 protease inhibition, fluke enzyme – biochemical, QFRET, fluorogenic peptide substrate, counter-screen for PFM18AAP inhibitor project, primary screen (AID 1906)
Details: recombinant F. hepatica cathepsin L1, Z-Leu-Arg-MCA fluorescence; at 5.96 µM
Out of some 300,000 compounds screened, about 1,500 (0.5%) were called active.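 Rule for the calls: active = inhibition above the mean of all tested compounds plus 3 SD, set per screening campaign (cut at about 17% in these data); inactive = the rest.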 The list comes from a sample in which actives are over-represented; it also holds close analogues and randomly drawn compounds.
Possible outcomes: Y = active, N = inactive

[[record]]
compound = "Oc1oc(-c2ccccc2Br)nc1/C=N/c1ccccn1"
label_value = "Y"

[[record]]
compound = "CC(N=Cc1nc(-c2ccccc2)oc1O)c1ccccc1 (stereo unspecified)"
label_value = "N"

[[record]]
compound = "CC(=O)N1C(=O)/C(=C2\\SC(=S)N(NC(=O)c3ccc(O)cc3)C2=O)c2ccccc21"
label_value = "Y"

[[record]]
compound = "CC1CN/C(=C\\C(=O)c2ccc(Br)cc2)C(=O)N1 (stereo unspecified)"
label_value = "N"

[[record]]
compound = "CC(N)C12CC3CC(CC(O)(C3)C1)C2 (stereo unspecified)"
label_value = "N"

[[record]]
compound = "CCOc1cc(NS(=O)(=O)c2ccc(OC)cc2)c(OCC)cc1NC(C)=O"
label_value = "N"

[[record]]
compound = "CCOc1cc(C2/C(=C(/O)c3ccc(S(=O)(=O)N4CCCCC4)cc3)C(=O)C(=O)N2CCOC)ccc1O (stereo unspecified)"
label_value = "N"

[[record]]
compound = "Cn1cccc1/C=C1\\SC(=S)N(NC(=O)c2ccc(Cl)cc2)C1=O"
label_value = "N"

[[record]]
compound = "NC(=O)c1ccsc1NC(=O)COC(=O)Cc1n[nH]c(=O)c2ccccc12"
label_value = "N"

[[record]]
compound = "C[C@@H](O)c1nc2ccccc2n1N"
label_value = "N"

[[record]]
compound = "Cc1ncn(C23CC4CC(CC(O)(C4)C2)C3)n1"
label_value = "Y"


The reported measurements were obtained from PubChem BioAssay AID1906.
